target: human CD33 on primary human monocyte-derived dendritic cells (human, UniProt P20138 18-364); experiment: cell-based or functional assay
Sequence (P20138 18-364): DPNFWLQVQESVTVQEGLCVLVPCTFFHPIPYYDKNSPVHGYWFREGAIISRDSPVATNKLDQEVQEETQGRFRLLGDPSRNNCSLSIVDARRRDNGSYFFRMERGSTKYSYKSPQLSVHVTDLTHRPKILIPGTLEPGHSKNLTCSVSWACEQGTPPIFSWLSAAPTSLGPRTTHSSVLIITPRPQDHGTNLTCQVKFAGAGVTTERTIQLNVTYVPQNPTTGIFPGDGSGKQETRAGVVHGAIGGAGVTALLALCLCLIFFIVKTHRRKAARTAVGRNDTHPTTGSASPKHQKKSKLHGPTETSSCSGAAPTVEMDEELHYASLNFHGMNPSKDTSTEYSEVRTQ
For each of the binders below, state its Receptor downregulation (EC50).
One number for each entry, in nM.

Worked examples, 4 binders total:
AB-H24 (antibody, V domains shown, Humanized variant of murine 2F5.1; also called AB-24) VH: QVQLVQSGAEVKKPGASVKISCKASGYTFTDYNLHWVRQAPGQRLEWIGFIYPSNGITGYSQKFQGKATLTVDTSASTAYMELSSLRSEDTAVYYCARSTVDYFDYWGQGTTVTVSS VL: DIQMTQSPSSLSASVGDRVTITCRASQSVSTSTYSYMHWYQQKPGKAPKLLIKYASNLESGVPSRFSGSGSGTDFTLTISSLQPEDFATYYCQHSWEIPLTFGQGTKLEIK    0.0725
AB-H63 (antibody, V domains shown, Humanized variant of murine 2F5.1) VH: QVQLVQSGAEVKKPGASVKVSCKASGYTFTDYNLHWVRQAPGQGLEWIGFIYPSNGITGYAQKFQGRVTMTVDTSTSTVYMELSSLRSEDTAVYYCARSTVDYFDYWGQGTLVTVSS VL: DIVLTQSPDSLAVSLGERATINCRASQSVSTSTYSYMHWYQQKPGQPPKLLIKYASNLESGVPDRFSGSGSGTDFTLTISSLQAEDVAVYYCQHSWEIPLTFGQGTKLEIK    0.032
AB-H64 (antibody, V domains shown, Humanized variant of murine 2F5.1; also called parental humanized antibody) VH: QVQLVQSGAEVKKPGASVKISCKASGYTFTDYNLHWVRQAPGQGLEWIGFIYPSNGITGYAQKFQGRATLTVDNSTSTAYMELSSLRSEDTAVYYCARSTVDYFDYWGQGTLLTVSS VL: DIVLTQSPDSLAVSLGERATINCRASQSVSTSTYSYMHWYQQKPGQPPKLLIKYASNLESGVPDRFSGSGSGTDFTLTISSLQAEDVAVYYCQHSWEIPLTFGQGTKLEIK    0.029
AB-H22 (antibody, V domains shown, Humanized variant of murine 2F5.1; also called AB-22) VH: QVQLVQSGAEVKKPGASVKISCKASGYTFTDYNLHWVRQAPGQRLEWIGFIYPSNGITGYNQKFKNKATLTVDTSASTAYMELSSLRSEDTAVYYCARSTVDYFDYWGQGTTVTVSS VL: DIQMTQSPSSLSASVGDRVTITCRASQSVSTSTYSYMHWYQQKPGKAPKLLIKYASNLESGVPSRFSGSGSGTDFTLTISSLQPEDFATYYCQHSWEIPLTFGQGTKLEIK    0.0901

Attention now turns to another entry.
IN: Given the entry AB-H71 (antibody, V domains shown, Humanized variant of murine 2F5.1; also called AB-71) VH: QVQLVQSGAELKKPGASVKVSCKASGYTFTDYNLHWVRQAPGQRLEWIGFIYPSNGITGYSQKFQGKATLTVDTSASTAYMELSSLRSEDTAVYYCARSTVDYFDYWGQGTTVTVSS VL: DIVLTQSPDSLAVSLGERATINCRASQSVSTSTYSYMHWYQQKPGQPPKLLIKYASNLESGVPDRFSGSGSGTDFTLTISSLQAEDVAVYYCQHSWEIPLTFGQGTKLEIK , report its measured Receptor downregulation (EC50).
OUT: 0.0412
